The origin of these recorded values is paper PMC5642273.

# system tested: (+)-limonene synthase [(+)-LS] (Citrus sinensis)
# Sequence (A0A1C9J6A7 53-607): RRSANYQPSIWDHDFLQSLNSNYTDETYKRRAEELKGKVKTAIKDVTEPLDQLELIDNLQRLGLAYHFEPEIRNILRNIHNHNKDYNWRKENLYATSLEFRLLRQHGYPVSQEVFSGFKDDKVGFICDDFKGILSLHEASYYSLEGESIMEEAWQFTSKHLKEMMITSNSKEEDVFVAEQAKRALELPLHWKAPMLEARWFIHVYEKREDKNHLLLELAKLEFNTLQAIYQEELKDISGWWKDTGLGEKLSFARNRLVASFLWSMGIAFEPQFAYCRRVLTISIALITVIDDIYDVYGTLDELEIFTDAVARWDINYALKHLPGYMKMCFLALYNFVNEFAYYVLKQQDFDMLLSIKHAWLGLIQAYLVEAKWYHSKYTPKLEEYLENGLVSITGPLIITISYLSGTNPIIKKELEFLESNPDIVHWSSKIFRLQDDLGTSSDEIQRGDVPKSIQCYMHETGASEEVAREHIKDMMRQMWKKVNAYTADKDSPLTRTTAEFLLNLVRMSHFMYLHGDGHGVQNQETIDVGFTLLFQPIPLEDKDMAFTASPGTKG
# test description: X-ray crystal structure
# Format: biochemical
readout label: pKi
Scale for pKi: -log10 of concentration given in mol/L; no unit attached.

Query string: May I ask what pKi has been recorded for CC(C)=CCC/C(C)=C(\F)COP(=O)(O)OP(=O)(O)O [FGPP, 2-fluorogeranyl diphosphate] ?
Result string: 5.62
